This collection of values is drawn from PubChem BioAssay AID248.

Test system: L1210 leukemia ip in BDF1 mice, survival T/C
Assay: NCI In Vivo Anticancer Drug Screen. Data for tumor model L1210 Leukemia (intraperitoneal) in B6D2F1 (BDF1) mice
Conditions: endpoint: mean survival time; dose: 50.0 mg/kg/injection; schedule: Q04DX003 (ip); vehicle: Klucel (hydroxypropylcellulose) (HPC); higher = longer survival
Toxic doses and inconclusive results are not listed.
# T/C per record follows

Some solved entries appear below for comparison.
> print(dat)
                                   compound          reported
1  CC(C)C1(C)C(=O)N(C)C(=O)N1Br (configuration not stated)  100 % of control
2  O=NC1C(Cl)C2CC1C1C(Br)C(Br)CC21 (configuration not stated)  100 % of control
3  CC(=O)Nc1ccc(/C=N\NC(=O)N/N=C/c2ccc(NC(C)=O)cc2)cc1   90 % of control
4                  Cn1[nH]c(=O)c2ccccc2c1=O  110 % of control
5               O=[N+]([O-])c1ccc(N=C=S)cc1   95 % of control
6            O=C(O)C1(Br)c2ccccc2-c2ccccc21  100 % of control

Let's switch to this compound now.
input: Any idea what its T/C is? The compound is `CNC(=O)c1cnc(SC)nc1N`
output: 103 % of control

----------
Tested on: L1210 leukemia ip in BDF1 mice, survival T/C
Test: NCI In Vivo Anticancer Drug Screen. Data for tumor model L1210 Leukemia (intraperitoneal) in B6D2F1 (BDF1) mice
Details: endpoint: mean survival time; dose: 5.0 mg/kg/injection; schedule: Q04DX003 (ip); vehicle: saline; higher = longer survival
Inconclusive results and toxic doses are left out.
parameter: T/C

Would you please look over these solved cases?
> print(dat)
                                   compound  parameter          reported
1  CC[C@](O)(C(=O)O)c1cc2n(c(=O)c1CO)Cc1cc3ccccc3nc1-2        T/C  116 % of control
2  O=Nc1c(S(=O)(=O)O)cc2cc(S(=O)(=O)O)cc(O)c2c1O.[Cu+2]        T/C   94 % of control
3                      CN1CCN(c2ccccc2N)CC1        T/C  107 % of control

Now look at this entry.
input: // query T/C value for entry CC(C)C1=CC2=CCC3C(C)(CN)CCCC3(C)C2CC1CCN (centres undefined)
output: 101 % of control

----------
Documented T/C across a set of molecules
Tested on: L1210 leukemia ip in BDF1 mice, survival T/C
Test: NCI In Vivo Anticancer Drug Screen. Data for tumor model L1210 Leukemia (intraperitoneal) in B6D2F1 (BDF1) mice
Details: endpoint: mean survival time; dose: 100.0 mg/kg/injection; schedule: Q01DX001 (ip); vehicle: acetone; higher = longer survival
Toxic doses and inconclusive results are not listed.

Consider the worked cases shown below.
> print(dat)
                                   molecule          reported
1  CCOc1ccc([N+](=O)[O-])cc1C1N(Cc2ccc(OC)cc2)CCCN1Cc1ccc(OC)cc1  100 % of control
2  OC(c1ccc(OCc2ccccc2)cc1)c1nccc2ccccc12 (centres undefined)   88 % of control
3                         COCCCNP(=O)(OC)OC   98 % of control

From here, focus on the item given below.
input: // fetch L1210 leukemia ip in BDF1 mice, survival T/C T/C for FC(F)(F)C(F)(C1=NS1(F)C(F)(C(F)(F)F)C(F)(F)F)C(F)(F)F (centres undefined)
output: 101 % of control

----------
Tested on: L1210 leukemia ip in BDF1 mice, survival T/C
Test: NCI In Vivo Anticancer Drug Screen. Data for tumor model L1210 Leukemia (intraperitoneal) in B6D2F1 (BDF1) mice
Settings: endpoint: mean survival time; dose: 400.0 mg/kg/injection; schedule: Q01DX001 (ip); vehicle: other; higher = longer survival
Inconclusive results and toxic doses are left out.
Documented T/C across a set of molecules

> print(dat)
                                        smi                               target.desc  parameter          reported
1        CN(Cc1ccccc1)/N=N/c1nc[nH]c1C(N)=O  L1210 leukemia ip in BDF1 mice, survival T/C        T/C  112 % of control
2  Cn1c(=O)c2[nH]c(-c3ccc4c(c3)OCO4)nc2n(C)c1=O  L1210 leukemia ip in BDF1 mice, survival T/C        T/C   86 % of control
3  O=C(CCCC(=O)N/N=C/c1cccc2ccccc12)N/N=C/c1cccc2ccccc12  L1210 leukemia ip in BDF1 mice, survival T/C        T/C   87 % of control
4     Cc1ccc(S(=O)(=O)Nc2cccc(C(=O)O)c2)cc1  L1210 leukemia ip in BDF1 mice, survival T/C        T/C  102 % of control

input: Which measured T/C belongs to `CCCc1[nH]nc(C(=O)OC)c1N=NN(C)C` , tested on L1210 leukemia ip in BDF1 mice, survival T/C?
output: 115 % of control

input: What reported T/C corresponds to `CNC(=O)Oc1cccc(C=O)c1` on L1210 leukemia ip in BDF1 mice, survival T/C?
output: 102 % of control

----------
Test system: L1210 leukemia ip in BDF1 mice, survival T/C
Assay: NCI In Vivo Anticancer Drug Screen. Data for tumor model L1210 Leukemia (intraperitoneal) in B6D2F1 (BDF1) mice
Conditions: endpoint: mean survival time; dose: 25.0 mg/kg/injection; schedule: Q01DX009 (ip); vehicle: saline with Tween-80; higher = longer survival
Inconclusive results and toxic doses are left out.
parameter: T/C

Example entries and their recorded answers appear below.
> print(dat)
                                   compound          reported
1           CSc1cc(-c2ccccc2)c2ccccc2[n+]1C  116 % of control
2  COC(=O)C(CSCSC)NC(=O)/C=C/c1ccco1 (stereo not given)  107 % of control
3  COC(=O)C1=C(C(=O)OC)C2(C)C=CC1O2 (stereo not given)  106 % of control

input: Reported T/C, compound `O=C(CC(Cl)(C(F)(F)F)C(F)(F)F)c1cccc([N+](=O)[O-])c1` : ____
output: 96 % of control

input: Param item = `O=C(Nc1ccc(S(=O)(=O)F)cc1)/C(=C/c1ccc([N+](=O)[O-])cc1)c1ccccc1` ; retrieve measured T/C.
output: 109 % of control

----------
Test system: L1210 leukemia ip in BDF1 mice, survival T/C
Test: NCI In Vivo Anticancer Drug Screen. Data for tumor model L1210 Leukemia (intraperitoneal) in B6D2F1 (BDF1) mice
Conditions: endpoint: mean survival time; dose: 12.5 mg/kg/injection; schedule: Q01DX009 (ip); vehicle: saline with Tween-80
Inconclusive results and toxic doses are left out. No stated cut-off is given here; in the data, active means T/C of 150% or more; inactive means T/C below 125%.
Log the outcome using a class from active, inactive

input: Given `CCOC(=O)Nc1cc2c(c(NC(=O)OCC)n1)N=C(CN(C)c1ccccc1)CN2` , state the outcome it received in this test.
output: inactive

input: Query: recorded result category for `NC(CSS(=O)(=O)O)=NCc1cccs1` in this test
output: inactive

input: Please state the recorded outcome for this compound: `CCCCN(C)CC#N`
output: inactive

input: Which result was noted for this compound in the test: `Cc1ccc(C)c2c1CCCC2=O`
output: inactive

input: Any idea what this test logged for `O=C(Nc1ccc(S(=O)(=O)F)cc1)/C(=C/c1ccc([N+](=O)[O-])cc1)c1ccccc1` ?
output: inactive

input: Write down the call the test reported for this compound. Item: COC(C)CCC(=O)O.[Ag] (configuration not stated)
output: inactive

input: Call for entry `CCS(=O)(=O)Nc1cccc(Nc2c3cccc(C)c3nc3c(C)cccc23)c1OC` :
output: active

----------
Tested on: L1210 leukemia ip in BDF1 mice, survival T/C
Assay: NCI In Vivo Anticancer Drug Screen. Data for tumor model L1210 Leukemia (intraperitoneal) in B6D2F1 (BDF1) mice
Conditions: endpoint: mean survival time; dose: 200.0 mg/kg/injection; schedule: Q01DX009 (ip); vehicle: other; higher = longer survival
Toxic doses and inconclusive results are not listed.
parameter: T/C

> print(dat)
                                   compound          reported
1                         Nc1cccc2cn[nH]c12  112 % of control
2  CCCCCCCCCCCCCCCCC(C)(O)C#CC(C)(O)CCCCCCCCCCCCCCCC (stereo unspecified)   97 % of control
3  Cc1cc(NC(=O)NCCCCCCNC(=O)Nc2cc(C)on2)no1  111 % of control

input: // returns reported T/C for input `Cc1cccc(NC(=S)Nc2ccc(-c3ccc(NC(=S)Nc4cccc(C)c4)cc3)cc2)c1`
output: 106 % of control

input: Need T/C, item OC(CC(O)(C(F)(F)F)C(F)(F)F)c1cccc(C(F)(F)F)c1 (stereo unspecified)
output: 96 % of control

input: May I ask what T/C has been recorded for `Cc1nc(C)c2c(c1C)-c1ccccc1C2=O` ?
output: 100 % of control
